System: PPARg homodimer (NR concentration 180 nM)
assayProtocol: PBM binding z-score (relative to random genomic background probes); higher = stronger binding; sequences stand for … in GC…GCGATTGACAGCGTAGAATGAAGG
measuredEndpoint: PBM binding z-score
Number, no unit, nothing else.

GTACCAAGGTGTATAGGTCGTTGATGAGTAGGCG 0.75

--- query ---
Ask | Supply PBM binding z-score value. Item: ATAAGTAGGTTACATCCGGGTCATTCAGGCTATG
Reply | 2.34

====

Tested on: RARa:RXR (NR concentration 270 nM, RXRa partner concentration 90 nM)
assayProtocol: PBM binding z-score (relative to random genomic background probes); higher = stronger binding; sequences stand for … in GC…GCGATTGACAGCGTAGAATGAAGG
measuredEndpoint: PBM binding z-score
Number, no unit, nothing else.

Sample records with PBM binding z-score:
TCTCGGGGGACACGAAAGGTCAGAGCTCGACATC 5.57
GCTCGGAGGACAAGGTCAGAGGTTTGTCCGTAGA 2.19
CCTACTGGGCTAAGGTCATTGATCAGTCAAAGCA 4.17
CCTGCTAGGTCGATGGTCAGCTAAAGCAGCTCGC -0.143
CAAACTAGGTCAAGAGGTCATAGTCCGCTTCCCG 7.42
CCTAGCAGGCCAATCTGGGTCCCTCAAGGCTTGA -0.522
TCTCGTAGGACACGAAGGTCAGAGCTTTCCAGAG 1.75
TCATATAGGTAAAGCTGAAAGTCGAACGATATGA 0.193

Ask | Supply PBM binding z-score value. Item: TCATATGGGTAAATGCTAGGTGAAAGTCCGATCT
Reply | 0.519

Ask | Supply PBM binding z-score value. Item: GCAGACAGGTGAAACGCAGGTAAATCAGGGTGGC
Reply | 0.514
